test: soluble on expression in E. coli; label from the status in PepcDB or PDB records
measuredProperty: soluble on expression in E. coli

Here is how some sequences turned out for soluble on expression in E. coli.
{"sequenceInput": "MTVVTTADTSQLYALAARHGLKLHGPLTVNELGLDYRIVIATVDDGRRWVLRIPRRAEVSAKVEPEARVLAMLKNRLPFAVPDWRVANAELVAYPMLEDSTAMVIQPGSSTPDWVVPQDSEVFAESFATALAALHAVPISAAVDAGMLIRTPTQARQKVADDVDRVRREFVVNDKRLHRWQRWLDDDSSWPDFSVVVHGDLYVGHVLIDNTERVSGMIDWSEARVDDPAIDMAAHLMVFGEEGLAKLLLTYEAAGGRVWPRLAHHIAERLAFGAVTYALFALDSGNEEYLAAAKAQLAAAE", "result": "not soluble"}
{"sequenceInput": "MAGDPMMSITIEQIRGALAGVADPQTGLELNVCVKDRDIHLAADPAALTIELGYPAGGVADSVRALAGAALAAAGLGAVRVAVTWNIIAHAVQPGLKPLPQVRNIIAVASGKGGVGKSTTAVNLALALAAEGARAGLLDADIYGPSVPAMLGLAGRPESRDNKTMEPLVGHGLQANSIGLLIDADAPAIWRGPMVTQALEQLLRQTNWRDLDYLVVDMPPGTGDIALTLAQKVPVAGAVIVTTPQDIALLDARKGLRMFQKVHVPILGVVENMAVHICPQCGHAEHIFGAGGGRRVAEQYEVPWLGSLPLQRAIREQTDAGNPTVAAEPESEVAGIYRDIARRVAARIAGLPRDMAGKLPAVVVRPALEHHHHHH", "result": "not soluble"}
{"sequenceInput": "MSLNIYRAASVLIDEAGKNDFEISLLGKVNDLVYDTKNEYLYAVSQKGLLAKLNASNGDVIWRQSIAPETSQLNYNPVTNFIITVDKDYLYIWNSKNGILDRKIELADGKGKLFEVNKGFVYLNPHTRKFIELDLQASFSISIERDLQLDAISFLTYAEKNYVLFKRDGQFVLQALDHNYAVYGPETVLNVPENAQLLVTEKDVIIYSSNGVIYGIHVSMADISQLLIDEYKTFEWSSIPGKRHGYSITVDSQSTPVTYLFVIIDSEFVLIDEYIHEDTEALGYIHMEDNQTFSRVFAVANQIKFAPATVITIPNQLSRPVFRLFTFAEGEISAIVILDDGTFFSFSNTELVWKREEALAYAINPSILPTTLLTSYQKSIQDEENSSEGHHHHHH", "result": "soluble"}
{"sequenceInput": "MGKTLVVGAGGVSHAAVHKMAMNSDIFTEITLASRTKAKCDAIAASVKERTGVTIQTAALDAMDVAATVALIKETGAEILVNLALPYQDLKLMDACLEAGCHYLDTANYEPEDVAKFEYHWQWAYQDKFKEAGLTAILGSGFDPGVTSVFATWLKKHKLATIRQIDVLDA", "result": "not soluble"}

We now examine a further sequence.
*Q* Look up soluble on expression in E. coli for this sequence: MGHHHHHHSHMAALASSLIRQKREVREPGGSRPVSAQRRVCPRGTKSLCQKQLLILLSKVRLCGGRPARPDRGPEPQLKGIVTKLFCRQGFYLQANPDGSIQGTPEDTSSFTHFNLIPVGLRVVTIQSAKLGHYMAMNAEGLLYSSPHFTAECRFKECVFENYYVLYASALYRQRRSGRAWYLGLDKEGQVMKGNRVKKTKAAAHFLPKLLEVAMYQEPSLHSVPEASPSSPPAP
*A* soluble
